System: TAMH cells overexpressing Bcl-xL (TAMH-Bcl-xL, Tabx2s)
Experiment: Cytotoxicity / apoptosis induction in TAMH cells overexpressing Bcl-xL
Assay type: cell-based
Conditions: Table 19; read-out: Bcl-XL
Observable: EC50
Include the unit right after the number.

Fill in EC50 for record CN(Cc1cc(C(C)(C)C)cc(Br)c1O)Cc1cc(C(C)(C)C)cc(Br)c1O 6.1 µM

* * *

Tested on: TAMH cells transfected with Neo vector (Neo)
Assay: Cytotoxicity / apoptosis induction in TAMH cells transfected with Neo vector
Assay type: cell-based
Settings: Table 13; read-out: IC50 TAMH Neo
Would you kindly list IC50 for each of these compounds?
Field: numeric (µM). Do not append units.

Fill in IC50 for record Oc1c(CCl)cc(Cl)cc1Cc1cc(Cl)cc(Cc2cc(Cl)cc(CCl)c2O)c1O 12.1

Fill in IC50 for record OCc1cc(Cl)cc(Cc2cc(Cl)cc(Cc3cc(Cl)cc(CO)c3O)c2O)c1O 4.5

Fill in IC50 for record Cc1cc(C)c(O)c(Cc2cc(Cl)cc(Cc3cc(C)cc(C)c3O)c2O)c1 5.6

Fill in IC50 for record Oc1ccc(Cl)cc1Cc1cc(Cl)cc(Cc2cc(Cl)ccc2O)c1O 3.5

Fill in IC50 for record Cc1cc(C(C)(C)C)cc(Cc2cc(C(C)(C)C)cc(Cc3cc(C(C)(C)C)cc(C)c3O)c2O)c1O 32.1

Fill in IC50 for record CC(=O)c1cc(Cl)cc(Cc2cc(Cl)cc(Cc3cc(Cl)cc(C(C)=O)c3O)c2O)c1O 5.7
